Assay: Cytotoxicity against human HuH5.2 cells after 1.5 hrs by MTS assay
Type: cell-based, Huh-5-2
Kindly state CC50 at 1.5 h for each of the entries shown.

entry_smiles=CC(C)CCn1cc(C2=NS(=O)(=O)c3cc(Br)cnc3N2)c2ccccc21 metric_name="CC50 at 1.5 h" result="> 50 µM"
entry_smiles=CCCCn1cc(C2=NS(=O)(=O)c3cc(Br)cnc3N2)c2ccccc21 metric_name="CC50 at 1.5 h" result="21.9 µM"
entry_smiles=O=S1(=O)N=C(c2cn(Cc3ccccc3)c3ccccc23)Nc2ccccc21 metric_name="CC50 at 1.5 h" result="> 50 µM"

// for each compound in input: emit CC50 at 1.5 h
1. CCCn1cc(C2=NS(=O)(=O)c3cc(Br)cnc3N2)c2ccccc21
2. C=CCn1cc(C2=NS(=O)(=O)c3cc(Br)cnc3N2)c2ccccc21

["16.6 µM", "> 50 µM"]

// for each compound in input: emit CC50 at 1.5 h
1. O=S1(=O)N=C(c2cn(Cc3ccccc3)c3ccccc23)Nc2ncc(Br)cc21
2. CCCn1cc(C2=NS(=O)(=O)c3ccccc3N2)c2ccccc21
3. CCCCn1cc(C2=NS(=O)(=O)c3ccccc3N2)c2ccccc21

1. > 50 µM
2. > 50 µM
3. > 50 µM

// for each compound in input: emit CC50 at 1.5 h
1. CC(C)CCn1cc(C2=NS(=O)(=O)c3ccccc3N2)c2ccccc21
2. CCCCn1cc(C2=NS(=O)(=O)c3cc(NS(C)(=O)=O)ccc3N2)c2cc(Br)ccc21

1. > 50 µM
2. 49.2 µM
